biological target: Gamma-secretase (Homo sapiens) (UniProt Q96BI3+Q9NZ42+Q8WW43+P49768+Q92542+P49810); assay: Modulation of gamma-secretase expressed in HEK293 cells co-expressing APPsw-lon assessed as reduction of total amyloid beta/amyloid-beta-42 ratio by sandwich immunoassay; type: cell-based
Property Name: Ratio
# output: bare number, no unit

Example molecules with recorded Ratio:
Molecule | Property Name | Assay Result
COc1cc(/C=C2\CCCN3CC(COc4ccccc4)ON=C23)ccc1-n1cnc(C)c1 (racemic) | Ratio | 147
COc1cc(/C=C2\CCCN3CC(c4cnccn4)ON=C23)ccc1-n1cnc(C)c1 (racemic) | Ratio | 2
COc1cc(/C=C2\CCCN3C2=NOCC32CCOc3ccc(F)cc32)ccc1-n1cnc(C)c1 (racemic) | Ratio | 50
COc1cc(/C=C2\CCCN3C2=NOC3(C)c2ccc(F)cc2)ccc1-n1cnc(C)c1 (stereo not given) | Ratio | 237
COc1cc(/C=C2\CCCN3CC(C(O)c4cc(F)cc(F)c4)ON=C23)ccc1-n1cnc(C)c1 (racemic) | Ratio | 265
CCc1csc(C[C@H]2CON=C3/C(=C/c4ccc(-n5cnc(C)c5)c(OC)c4)CCCN32)n1 | Ratio | 3

# Ratio of COc1cc(/C=C2\CCCN3CC(c4cccc5ccccc45)ON=C23)ccc1-n1cnc(C)c1 (racemic) = 158

Ratio in this record for COc1cc(/C=C2\CCCN3C2=NOC[C@@H]3CN2CCOCC2)ccc1-n1cnc(C)c1 : 5

Value of measured Ratio for the entry COc1cc(/C=C2\CCCN3C2=NOC[C@@H]3c2cc(F)cc(Cl)c2)ccc1-n1cnc(C)c1 : 507

Documented Ratio of COc1cc(/C=C2\CCCN3CC(CO[Si](c4ccccc4)(c4ccccc4)C(C)(C)C)ON=C23)ccc1-n1cnc(C)c1 (racemic) : 80

----------
target: Gamma-secretase (Homo sapiens) (UniProt Q96BI3+Q9NZ42+Q8WW43+P49768+Q92542+P49810); experiment: Modulation of gamma-secretase expressed in HEK293 cells co-expressing APPsw-lon assessed as reduction of total amyloid beta/amyloid-beta-42 ratio by sandwich immunoassay; format: cell-based
Property Name: Ratio
Simply state the number, no unit and no words.

Molecule | Ratio
COc1cc(/C=C2\O[C@@H](C)CN3C2=NOC[C@@H]3c2cc(F)cc(F)c2)ccc1-n1cnc(C)c1 | 550
COc1cc(/C=C2\CCCN3CC(Cc4ccccc4)ON=C23)ccc1-n1cnc(C)c1 (racemic) | 241

The molecule listed as COc1cc(/C=C2\CCCN3CC(c4nccn4C)ON=C23)ccc1-n1cnc(C)c1 (racemic) shows Ratio equal to 3

get_value(item= COc1cc(/C=C2\CCCN3C2=NOC[C@@H]3CNC(=O)c2cccc(Cl)c2)ccc1-n1cnc(C)c1 , readout=Ratio) returns 24

Reported Ratio ( COc1cc(/C=C2\CCCN3C2=NOC[C@@H]3CS(C)(=O)=O)ccc1-n1cnc(C)c1 ) = 1

So, COc1cc(/C=C2\CCCN3CC(COCc4ccccc4)ON=C23)ccc1-n1cnc(C)c1 (racemic) ? Its Ratio was 80

GET /value?item= COc1cc(/C=C2\CCCN3C2=NOC[C@@H]3c2cc(F)c(OC)c(F)c2)ccc1-n1cnc(C)c1 &field=Ratio returns 459

Lab book: Ratio of COc1cc(/C=C2\CCCN3C2=NOC[C@@H]3Cc2ccccc2)ccc1-n1cnc(C)c1 noted as 238

Ratio recorded for this molecule, COc1cc(/C=C2\CCCN3C2=NOC3(CO)c2ccc(F)cc2)ccc1-n1cnc(C)c1 (configuration not stated) , is 289

Reported Ratio ( COc1cc(/C=C2\CCCN3C2=NOC[C@@H]3c2cc(F)c(F)c(F)c2)ccc1-n1cnc(C)c1 ) = 607

Lab book: Ratio of COc1cc(/C=C2\CCCN3C(=O)CON=C23)ccc1-n1cnc(C)c1 noted as 8

Consider COc1cc(/C=C2\CCCN3C2=NOC32CCOc3ccc(F)cc32)ccc1-n1cnc(C)c1 (configuration not stated) . Its measured Ratio is 223
